molecular target: Tyrosine-protein kinase Fer (Homo sapiens)
Sequence (P16591 whole entry): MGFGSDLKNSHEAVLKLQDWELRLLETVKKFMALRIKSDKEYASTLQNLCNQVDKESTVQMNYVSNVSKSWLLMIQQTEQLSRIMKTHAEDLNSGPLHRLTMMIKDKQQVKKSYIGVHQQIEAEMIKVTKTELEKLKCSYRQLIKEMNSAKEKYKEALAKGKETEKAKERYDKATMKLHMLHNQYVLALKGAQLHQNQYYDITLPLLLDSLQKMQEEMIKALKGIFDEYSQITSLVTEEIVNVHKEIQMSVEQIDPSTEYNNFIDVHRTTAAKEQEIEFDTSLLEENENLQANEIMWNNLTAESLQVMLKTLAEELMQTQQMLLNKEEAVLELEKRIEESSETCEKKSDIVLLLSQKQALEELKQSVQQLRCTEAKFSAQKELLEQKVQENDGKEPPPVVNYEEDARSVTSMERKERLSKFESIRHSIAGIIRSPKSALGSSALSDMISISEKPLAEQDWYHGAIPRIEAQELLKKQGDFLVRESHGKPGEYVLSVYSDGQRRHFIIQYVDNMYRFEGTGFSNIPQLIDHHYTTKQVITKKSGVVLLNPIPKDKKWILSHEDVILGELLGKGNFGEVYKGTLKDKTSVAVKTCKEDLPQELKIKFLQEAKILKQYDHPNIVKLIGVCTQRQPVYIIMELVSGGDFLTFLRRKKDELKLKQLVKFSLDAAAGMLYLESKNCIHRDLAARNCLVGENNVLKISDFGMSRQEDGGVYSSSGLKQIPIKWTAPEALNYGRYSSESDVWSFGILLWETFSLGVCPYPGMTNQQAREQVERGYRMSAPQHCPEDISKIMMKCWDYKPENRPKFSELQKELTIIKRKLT
pIC50: −log10 of the molar value.
quantity: pIC50

- molecule: "N#CCNC(=O)c1ccc(-c2ccnc(Nc3ccc(N4CCOCC4)cc3)n2)cc1 [MOMELOTINIB]"
  quantity: "pIC50"
  data-value: "< 6.00"

* * *

target: Serine/threonine-protein kinase pim-1 (Homo sapiens, UniProt P11309)
Sequence (P11309 whole entry): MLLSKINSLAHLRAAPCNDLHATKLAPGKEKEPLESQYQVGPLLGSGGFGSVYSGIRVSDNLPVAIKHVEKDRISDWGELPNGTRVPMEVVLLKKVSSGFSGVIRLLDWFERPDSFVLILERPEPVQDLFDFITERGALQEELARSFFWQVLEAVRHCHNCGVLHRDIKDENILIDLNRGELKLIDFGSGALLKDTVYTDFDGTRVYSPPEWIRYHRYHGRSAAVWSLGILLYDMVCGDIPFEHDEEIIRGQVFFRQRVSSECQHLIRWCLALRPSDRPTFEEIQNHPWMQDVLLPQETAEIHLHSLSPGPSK
quantity: IC50

- structure-as-smiles: "N#CCNC(=O)c1ccc(-c2ccnc(Nc3ccc(N4CCOCC4)cc3)n2)cc1"
  quantity: "IC50"
  data-value: "> 1000 nM"

* * *

molecular target: Mitogen-activated protein kinase 14 (Homo sapiens); test: Inhibition of MAPK14 (unknown origin)
Sequence (Q16539 whole entry): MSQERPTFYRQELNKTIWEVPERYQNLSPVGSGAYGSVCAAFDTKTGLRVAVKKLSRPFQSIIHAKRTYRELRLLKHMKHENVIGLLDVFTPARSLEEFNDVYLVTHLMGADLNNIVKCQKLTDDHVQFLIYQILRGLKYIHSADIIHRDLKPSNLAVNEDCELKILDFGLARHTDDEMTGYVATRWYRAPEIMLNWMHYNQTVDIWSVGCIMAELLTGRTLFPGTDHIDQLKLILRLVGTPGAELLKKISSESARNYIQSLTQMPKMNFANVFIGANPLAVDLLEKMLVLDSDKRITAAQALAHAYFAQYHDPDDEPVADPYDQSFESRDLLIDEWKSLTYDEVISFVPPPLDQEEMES
pIC50: −log10 of the molar value.
quantity: pIC50

- structure-as-smiles: "N#CCNC(=O)c1ccc(-c2ccnc(Nc3ccc(N4CCOCC4)cc3)n2)cc1"
  data-value: "< 6.00"

* * *

target: MAP kinase-activated protein kinase 2 (Homo sapiens, UniProt P49137); assay: Inhibition of MAPKAPK2 (unknown origin)
Sequence (P49137 whole entry): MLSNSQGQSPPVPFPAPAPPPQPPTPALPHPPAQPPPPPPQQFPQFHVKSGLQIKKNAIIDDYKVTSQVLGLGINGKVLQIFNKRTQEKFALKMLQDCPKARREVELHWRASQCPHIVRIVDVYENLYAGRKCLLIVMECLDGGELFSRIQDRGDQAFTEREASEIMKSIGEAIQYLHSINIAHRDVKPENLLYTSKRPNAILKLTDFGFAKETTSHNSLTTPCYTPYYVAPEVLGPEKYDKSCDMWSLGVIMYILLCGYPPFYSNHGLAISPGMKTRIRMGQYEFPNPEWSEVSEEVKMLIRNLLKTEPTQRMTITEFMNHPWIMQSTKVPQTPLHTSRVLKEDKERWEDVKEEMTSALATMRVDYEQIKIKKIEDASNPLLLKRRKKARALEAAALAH
pIC50: −log10 of the molar value.
quantity: pIC50

- compound: "N#CCNC(=O)c1ccc(-c2ccnc(Nc3ccc(N4CCOCC4)cc3)n2)cc1 [MOMELOTINIB]"
  quantity: "pIC50"
  data-value: "< 6.00"

* * *

target: MAP kinase-activated protein kinase 5 (Homo sapiens); assay: Inhibition of MAPKAPK5 (unknown origin)
Sequence (Q8IW41 whole entry): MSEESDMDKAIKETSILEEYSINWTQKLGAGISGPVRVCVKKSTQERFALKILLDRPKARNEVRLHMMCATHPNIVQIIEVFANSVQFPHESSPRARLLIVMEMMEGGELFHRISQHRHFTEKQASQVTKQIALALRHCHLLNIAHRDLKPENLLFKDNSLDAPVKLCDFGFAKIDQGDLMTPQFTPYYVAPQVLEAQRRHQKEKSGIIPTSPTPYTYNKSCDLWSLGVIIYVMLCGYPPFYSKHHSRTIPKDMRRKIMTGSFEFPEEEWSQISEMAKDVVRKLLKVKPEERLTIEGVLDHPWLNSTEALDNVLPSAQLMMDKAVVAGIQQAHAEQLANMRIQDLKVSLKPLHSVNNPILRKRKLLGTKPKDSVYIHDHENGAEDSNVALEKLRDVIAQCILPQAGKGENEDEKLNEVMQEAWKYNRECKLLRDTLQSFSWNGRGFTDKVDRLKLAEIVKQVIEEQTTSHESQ
quantity: IC50

- structure-as-smiles: "N#CCNC(=O)c1ccc(-c2ccnc(Nc3ccc(N4CCOCC4)cc3)n2)cc1"
  data-value: "> 1000 nM"

* * *

molecular target: Casein kinase I isoform gamma-1 (Homo sapiens, UniProt Q9HCP0); test: Inhibition of CSNK1G1 (unknown origin)
Sequence (Q9HCP0 whole entry, canonical isoform): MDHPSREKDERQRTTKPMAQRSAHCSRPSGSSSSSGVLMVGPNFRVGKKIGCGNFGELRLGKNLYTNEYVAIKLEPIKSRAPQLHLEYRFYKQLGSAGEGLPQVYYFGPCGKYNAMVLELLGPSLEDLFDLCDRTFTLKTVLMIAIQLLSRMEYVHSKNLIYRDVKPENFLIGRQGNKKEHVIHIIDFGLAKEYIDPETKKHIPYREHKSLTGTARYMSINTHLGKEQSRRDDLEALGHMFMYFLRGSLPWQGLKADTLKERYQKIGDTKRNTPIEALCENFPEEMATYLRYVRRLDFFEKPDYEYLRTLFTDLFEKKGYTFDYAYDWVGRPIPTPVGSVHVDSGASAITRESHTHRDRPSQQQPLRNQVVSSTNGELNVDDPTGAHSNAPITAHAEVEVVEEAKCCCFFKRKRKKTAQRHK
pIC50: −log10 of the molar value.

- compound: "N#CCNC(=O)c1ccc(-c2ccnc(Nc3ccc(N4CCOCC4)cc3)n2)cc1 [MOMELOTINIB]"
  pIC50: "< 6.00"

* * *

Target: Aurora kinase C (Homo sapiens, UniProt Q9UQB9)
Sequence (Q9UQB9 whole entry): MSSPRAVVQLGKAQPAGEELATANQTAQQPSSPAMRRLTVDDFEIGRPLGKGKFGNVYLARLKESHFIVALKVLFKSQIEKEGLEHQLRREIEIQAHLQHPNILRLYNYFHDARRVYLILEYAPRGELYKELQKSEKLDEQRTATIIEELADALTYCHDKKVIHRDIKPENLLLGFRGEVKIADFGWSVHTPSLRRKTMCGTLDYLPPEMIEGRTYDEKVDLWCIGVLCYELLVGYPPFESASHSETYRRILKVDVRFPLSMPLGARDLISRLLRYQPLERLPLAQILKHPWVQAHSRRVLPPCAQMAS
pIC50: −log10 of the molar value.

- compound: "N#CCNC(=O)c1ccc(-c2ccnc(Nc3ccc(N4CCOCC4)cc3)n2)cc1 [MOMELOTINIB]"
  pIC50: "> 6.00"

* * *

Biological target: UniProtKB Q8WTQ7
Sequence (Q8WTQ7 whole entry): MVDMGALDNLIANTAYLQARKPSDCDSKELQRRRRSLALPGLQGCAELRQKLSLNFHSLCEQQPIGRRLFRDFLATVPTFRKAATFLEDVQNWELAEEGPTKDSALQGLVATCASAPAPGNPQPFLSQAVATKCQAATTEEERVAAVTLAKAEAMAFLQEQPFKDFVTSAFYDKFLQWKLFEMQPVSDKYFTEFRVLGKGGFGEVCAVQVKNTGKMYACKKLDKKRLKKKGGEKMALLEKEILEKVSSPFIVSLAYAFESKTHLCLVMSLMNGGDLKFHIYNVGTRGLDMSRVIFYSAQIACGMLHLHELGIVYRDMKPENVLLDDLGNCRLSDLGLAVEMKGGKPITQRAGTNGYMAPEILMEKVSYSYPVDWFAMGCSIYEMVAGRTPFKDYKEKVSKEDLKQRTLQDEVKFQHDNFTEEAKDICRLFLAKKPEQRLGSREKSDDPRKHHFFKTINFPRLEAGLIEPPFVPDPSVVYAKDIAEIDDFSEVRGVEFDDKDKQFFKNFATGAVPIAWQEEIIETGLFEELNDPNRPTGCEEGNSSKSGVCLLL
pIC50: −log10 of the molar value.

- structure-as-smiles: "N#CCNC(=O)c1ccc(-c2ccnc(Nc3ccc(N4CCOCC4)cc3)n2)cc1"
  pIC50: "< 6.00"
